Please respond with reported Wnt reporter firefly/Renilla luciferase ratio for every item in the list.
Test system: HEK293T (UBE3A T485A transfected, BAR Wnt reporter)
assay text: Wnt reporter firefly/Renilla luciferase ratio relative to plate median (fold (linear ratio)); higher = more Wnt/beta-catenin reporter activation
experimental conditions: concentration: 0.1 uM; 24 h
Over roughly 1,100 compounds, “Wnt reporter firefly/Renilla luciferase ratio relative to plate median” has its median near 1.1; the highest 2% begin near 1.6. The sample as a whole holds a higher share of the highest values than the screen did.

Item under review: C/C(=N\C#N)N(C)Cc1ccc(Cl)nc1 . Reported Wnt reporter firefly/Renilla luciferase ratio?
0.96

Item under review: CC(C)OC(=O)Nc1cccc(Cl)c1 . Reported Wnt reporter firefly/Renilla luciferase ratio?
1.78

Item under review: CC(C)Oc1cccc(NC(=O)c2ccccc2C(F)(F)F)c1 . Reported Wnt reporter firefly/Renilla luciferase ratio?
0.79

Item under review: CCOP(=S)(OCC)Oc1nc(Cl)c(Cl)cc1Cl . Reported Wnt reporter firefly/Renilla luciferase ratio?
1.11

Item under review: O=C(O)c1nc(Cl)ccc1Cl . Reported Wnt reporter firefly/Renilla luciferase ratio?
1.81

Item under review: O=C(O)CNCP(=O)(O)O [Glyphosate] . Reported Wnt reporter firefly/Renilla luciferase ratio?
1.38

Item under review: O=C(Nc1ccccc1)Nc1ccnc(Cl)c1 . Reported Wnt reporter firefly/Renilla luciferase ratio?
1.16

Item under review: O=C(Oc1ccc(Br)cc1)N1CCN2CCC1CC2 . Reported Wnt reporter firefly/Renilla luciferase ratio?
1.11

Item under review: CCOP(=O)(OCC)Oc1nc(Cl)c(Cl)cc1Cl . Reported Wnt reporter firefly/Renilla luciferase ratio?
0.876

Item under review: Cc1cccc([N+](=O)[O-])c1 . Reported Wnt reporter firefly/Renilla luciferase ratio?
1.02

Item under review: CCCCC(C#N)(Cn1cncn1)c1ccc(Cl)cc1 (stereo unspecified) . Reported Wnt reporter firefly/Renilla luciferase ratio?
1

Item under review: CO/N=C(/C1=NOCCO1)c1ccccc1Oc1ncnc(Oc2ccccc2Cl)c1F . Reported Wnt reporter firefly/Renilla luciferase ratio?
1.27

Item under review: O=C(O)c1c(Cl)ccc2cc(Cl)cnc12 . Reported Wnt reporter firefly/Renilla luciferase ratio?
1.3

Item under review: c1ccc2c(c1)Nc1ccccc1S2 . Reported Wnt reporter firefly/Renilla luciferase ratio?
1.08

Item under review: ClC1=C(Cl)C(Cl)(Cl)C(Cl)=C1Cl . Reported Wnt reporter firefly/Renilla luciferase ratio?
1.24

Item under review: N#Cc1nn(-c2c(Cl)cc(C(F)(F)F)cc2Cl)c(N)c1S(=O)C(F)(F)F (stereo unspecified) . Reported Wnt reporter firefly/Renilla luciferase ratio?
0.896

Item under review: CC(=O)N=C1C=CC(=O)C=C1 . Reported Wnt reporter firefly/Renilla luciferase ratio?
1.17

Item under review: COS(=O)(=O)[O-].Cn1c(-c2ccccc2)cc(-c2ccccc2)[n+]1C [Difenzoquat metilsulfate] . Reported Wnt reporter firefly/Renilla luciferase ratio?
0.813

Item under review: CS(=O)(=O)c1cc(C(F)(F)F)ccc1C(=O)c1cnoc1C1CC1 . Reported Wnt reporter firefly/Renilla luciferase ratio?
1.4

Item under review: Oc1ccccc1Cl . Reported Wnt reporter firefly/Renilla luciferase ratio?
0.951

Item under review: CNC(=S)[S-].O.O.O.[Na+] [Metam-sodium hydrate] . Reported Wnt reporter firefly/Renilla luciferase ratio?
0.921
